# credit: PubChem BioAssay

assay: decreased DLD-1 cellular survival, CellTiter-Glo luminescent readout, NPC compound collection, primary HTS (AID 1117346); settings: DLD-1 viability, CellTiter-Glo luminescence; at 20 µM (top of the series)
Endpoint: viability decrease (inhibition) (%)
Form entry: value (%) — number only.

These solved cases illustrate the format of a correct answer.
molecule=CC(C)(C)c1cc(O)ccc1O val=-12
molecule=ClCCCN1CCN(c2cccc(Cl)c2)CC1 val=50.1
molecule=CN1C[C@H](CNC(=O)OCc2ccccc2)C[C@@H]2c3cccc4c3c(cn4C)C[C@H]21 val=92.2
molecule=CCOC(=O)c1ncn2c1CN(C)C(=O)c1c(I)cccc1-2 val=-11.3
molecule="c1ccc2c(c1)OCC(C1=NCCN1)O2 (configuration not stated)" val=-3.9
molecule=CC(=O)Nc1cc([As](=O)(O)O)ccc1O val=-3.7

Here's the next entry for you.
Query: So what's the measured viability decrease (inhibition) for this one? "COC(=O)[C@@H](N)CCCN/C(N)=N/[N+](=O)[O-]"
Result: -0.3

---

assay: growth inhibition of BT084 medulloblastoma cells, cell-based, ICGC_MB145, cisplatin and BGB IC40 combos (AID 1671461); conditions: drug combinations, cisplatin combination, at 0.5 µM, stronger effect = higher value;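 note: cells exposed to drugs for 96 hours; 0% = vehicle DMSO and 100% = high DMSO full killing control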
Listing of entries alongside the reported inhibition.
Report as a plain number; the unit % is understood.

compound=O=C(O)CCCc1ccc(N(CCCl)CCCl)cc1 val=-2.56
compound=O=C1CCC[C@@H]2[C@H]3CCCN4CCC[C@@H](CN12)[C@@H]34 val=3.61
compound=Cn1c(CCCC(=O)O)nc2cc(N(CCCl)CCCl)ccc21 val=-15.3
compound=CCC1(c2ccccc2)C(=O)NC(=O)NC1=O val=4.39
compound=CC1(C)C(C(=O)Nc2ccc(S(=O)(=O)c3ccc(NC(=O)C4C(C)(C)C4(C)C)cc3)cc2)C1(C)C val=-4.81

Query: Which inhibition is listed for O=c1[nH]c(=O)n(C2OC(CO)C(O)C2O)cc1F (stereo unspecified) ?
Result: -18.4

---

target: L-lactate dehydrogenase (Plasmodium falciparum (isolate CDC / Honduras)) (UniProt Q27743); test: PfLDH activity inhibition – cell lysate, 3D7 strain, counter-screen for P. falciparum growth inhibition project (AID 2304);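 note: 0% = vehicle and 100% = reference inhibitor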; details: P. falciparum 3D7 crude extract, LDH APAD/NBT absorbance; at 2 µM; stronger effect = higher value
Sequence (Q27743 whole entry, looked up): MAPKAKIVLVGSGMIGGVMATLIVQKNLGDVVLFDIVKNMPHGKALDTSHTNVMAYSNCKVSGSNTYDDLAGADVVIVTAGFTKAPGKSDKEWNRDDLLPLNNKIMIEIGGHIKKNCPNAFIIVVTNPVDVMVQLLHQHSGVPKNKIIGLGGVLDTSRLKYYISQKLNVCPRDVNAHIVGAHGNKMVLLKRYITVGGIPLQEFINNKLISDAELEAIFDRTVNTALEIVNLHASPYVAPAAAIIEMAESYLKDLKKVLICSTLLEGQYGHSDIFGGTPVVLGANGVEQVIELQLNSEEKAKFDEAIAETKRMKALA
Calls of active or inactive are those of the source. How the calls were made is not given here.
Below, each entry is listed alongside its reported inhibition.

Solved cases below.
molecule=O=C(/C=C/c1ccc(Cl)c(Cl)c1)Nc1cccc(CN2CCC(c3c[nH]c4ccccc34)CC2)c1 experimental_target="L-lactate dehydrogenase (Plasmodium falciparum (isolate CDC / Honduras)) (UniProt Q27743)" val="0% (inactive)"
molecule=Oc1ccc(Cl)cc1CN1CCC(CCOC(c2ccccc2)c2ccccc2)CC1 experimental_target="L-lactate dehydrogenase (Plasmodium falciparum (isolate CDC / Honduras)) (UniProt Q27743)" val="4% (inactive)"
molecule="CCCCCC(C)C(C)c1cc(O)c2c3c(c(=O)oc2c1)CN(Cc1ccccc1)CC3 (stereo not given)" experimental_target="L-lactate dehydrogenase (Plasmodium falciparum (isolate CDC / Honduras)) (UniProt Q27743)" val="-2% (inactive)"

Query: I have this molecule here, "CNC(=O)c1ccc2[nH]cc(C3CCN(CC4CCN(C(=O)/C=C/c5ccc(Cl)c(Cl)c5)CC4)CC3)c2c1" , and I need its recorded inhibition.
Result: 1% (inactive)

Query: Cool, now COc1ccc(CC(C)NCC(O)c2ccc(Cl)c(Cl)c2)cc1 (stereo not given)
Result: 6% (inactive)

Query: Then this molecule: CCCCOC(C(=O)OCC1CCCN1C)(c1ccccc1)c1ccccc1 (stereo not given)
Result: 6% (inactive)

Query: Cool, now "CN(C)CCC(=O)c1ccccc1"
Result: -6% (inactive)

Query: Request: COc1c(F)cc(CC(C)NCC(O)c2cccc(Cl)c2)cc1F (stereo not given)
Result: 0% (inactive)

Query: Please do the same for "CN1CC=C(c2c[nH]c3ccc(-c4ccccc4)cc23)CC1" as well.
Result: -1% (inactive)

Query: Another molecule: CCCCCCC(C)c1cc(O)c2c(c1)OC(C)(C)c1ccncc1-2 (stereo not given)
Result: -4% (inactive)
